Assayed system: CCK receptor (brain, cerebral cortex) (Cavia porcellus)
Construct: Cerebral cortex was dissected and used as a receptor source; from tissue; host or cells: guinea pig cerebral cortex membranes (male Hartley)
Method notes: biochemical
Assay type: binding, Male Hartley guinea pigs
Condition details: IC50 ^125 I-CCK Brain, guinea pig cerebral cortex, ^125 I-CCK-33, 25° C., 2 hours
Protocol: 2. CCK Recepto Binding (Brain) CCK-33 was radiolabeled and the binding was Performed according to the description for the Pancreas method with modifications according to Saito et al., J. Neurochem. Cerebral cortex was dissected and used as a receptor source. Each gram of fresh guinea pig brain tissue was homogenized in 10 ml of Tris/Trizma buffer with a Brinkman polytron PT-10. […] The supernatant was aspirated and discarded, pellets were counted with a Beckman gamma 5000.
Reported pIC50 values follow for various compounds
// pIC50: -log10(molar conc.)

# example entries with known answers
Request: Field request: pIC50 | item: O=C(NC1N=C(c2ccccc2)c2ccccc2NC1=O)c1ccc(-c2ccccc2)cc1 (racemic)
Result: 4.74

Request: Field request: pIC50 | item: O=C(NCC1CNc2ccccc2C(c2ccccc2F)=N1)c1ccsc1 (racemic)
Result: 4.13

Request: Field request: pIC50 | item: CN1C(=O)[C@@H](NC(=O)c2cc3ccccc3[nH]2)N=C(c2ccccc2F)c2ccccc21
Result: 6.52

Next:
Request: Field request: pIC50 | item: O=C(NC1N=C(c2ccccc2F)c2ccccc2NC1=S)c1cc2ccccc2[nH]1 (racemic)
Result: 5.03

Request: Field request: pIC50 | item: COc1cccc(NC(=O)N[C@@H]2N=C(c3ccccc3)c3ccccc3N(C)C2=O)c1
Result: 8.66

---

Assayed system: CCK receptor (brain, cerebral cortex) (Cavia porcellus, UniProt H0VZC5)
Construct: Cerebral cortex was dissected and used as a receptor source; from tissue; host or cells: guinea pig cerebral cortex membranes (male Hartley)
Sequence (H0VZC5 1-426): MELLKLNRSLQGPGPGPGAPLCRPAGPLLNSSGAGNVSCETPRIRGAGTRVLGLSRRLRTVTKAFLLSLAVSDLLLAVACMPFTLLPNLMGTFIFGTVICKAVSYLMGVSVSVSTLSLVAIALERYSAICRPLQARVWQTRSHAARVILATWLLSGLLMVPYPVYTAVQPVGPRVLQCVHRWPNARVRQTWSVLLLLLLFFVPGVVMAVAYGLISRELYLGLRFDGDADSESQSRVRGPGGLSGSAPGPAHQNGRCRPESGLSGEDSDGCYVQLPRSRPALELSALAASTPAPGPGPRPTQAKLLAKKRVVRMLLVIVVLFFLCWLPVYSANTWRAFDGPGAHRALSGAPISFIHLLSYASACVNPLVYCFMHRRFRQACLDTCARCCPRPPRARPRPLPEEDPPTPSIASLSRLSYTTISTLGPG
Method notes: biochemical
Type: binding, Male Hartley guinea pigs
Condition details: IC50 ^125 I-CCK Brain, guinea pig cerebral cortex, ^125 I-CCK-33, 25° C., 2 hours
Result type: IC50

Request: Field request: IC50 | item: CN1C(=O)C(NC(=O)c2ccccc2Cl)N=C(c2ccccc2)c2ccccc21 (racemic)
Result: > 100 µM

Request: Field request: IC50 | item: COc1ccc(C(=O)NC2N=C(c3ccccc3F)c3ccccc3NC2=O)cc1 (racemic)
Result: > 40 µM

Request: Field request: IC50 | item: CN1C(=O)[C@@H](NC(=O)C(C)(C)C)N=C(c2ccccc2)c2ccccc21
Result: > 100 µM

Request: Field request: IC50 | item: CN1C(=O)[C@@H](N)N=C(c2ccccc2)c2ccccc21 [Example 85a]
Result: > 100 µM

Request: Field request: IC50 | item: O=C(O)CN1C(=O)C(NC(=O)c2ccc(Cl)cc2)N=C(c2ccccc2F)c2ccccc21 (racemic)
Result: > 100 µM

Request: Field request: IC50 | item: NCC1N=C(c2ccccc2F)c2ccccc2NC1=O (racemic)
Result: > 100 µM
